- system.name: human GIP receptor (hGIPR) (Homo sapiens, UniProt P48546)
- Construct: expressed in transfected cells
- Sequence (P48546 22-466): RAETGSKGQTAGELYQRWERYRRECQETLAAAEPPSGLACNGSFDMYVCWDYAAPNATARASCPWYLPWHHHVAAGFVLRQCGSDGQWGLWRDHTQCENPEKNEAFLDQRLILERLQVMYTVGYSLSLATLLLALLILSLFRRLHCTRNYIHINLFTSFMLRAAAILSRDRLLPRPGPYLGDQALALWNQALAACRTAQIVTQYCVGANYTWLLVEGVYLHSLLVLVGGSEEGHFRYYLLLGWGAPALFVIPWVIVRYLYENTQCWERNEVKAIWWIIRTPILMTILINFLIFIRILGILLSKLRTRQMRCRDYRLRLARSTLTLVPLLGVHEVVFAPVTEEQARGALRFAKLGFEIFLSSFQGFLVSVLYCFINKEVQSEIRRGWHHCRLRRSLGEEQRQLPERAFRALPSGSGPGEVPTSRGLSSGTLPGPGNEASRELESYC
- test.name: GIP receptor assay, method A (CRE-luciferase reporter, BHK cells)
- Type: cell-based
- experimental.conditions: hGIPR Potency, no HSA, EC50, method A, absence of HSA
Numbered stars: 1 amine (or outer) side, 2 acyl side, 3 side chain; on linkers, the order of the positions; unused ones are H or OH. Square brackets hold non-standard residues; d marks the D form. Side chains are listed from the residue outwards. * marks the point of attachment. C20 diacid = O=C(O)CCCCCCCCCCCCCCCCCCC(=O)*; C16 diacid = O=C(O)CCCCCCCCCCCCCCC(=O)*; γGlu = O=C(O)[C@H](CCC(=O)[*:2])N[*:1]; AEEA = NCCOCCOCC(=O)O; Aib = CC(C)(N)C(=O)O
readout.kind: EC50 (pM)
Just the number in pM, nothing appended.

Use the examples below as a reference point.
>  <substance>
Y[Aib]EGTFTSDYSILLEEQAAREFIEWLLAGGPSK([γGlu-C20 diacid])GAPPPSGGGEASELSTAALGRLSAELHRLADLPRTETGSGSP-NH2 [Compound 41]

>  <readout.kind>
EC50

>  <numeric.value>
5.02

$$$$
>  <substance>
H[Aib]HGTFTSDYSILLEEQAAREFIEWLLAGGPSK([AEEA-AEEA-γGlu-C16 diacid])GAPPPSGGGEASHLSTAQTARLSAELHRLADLPRTETGSGSP-NH2 [Compound 61]

>  <readout.kind>
EC50

>  <numeric.value>
1.3

$$$$

# evaluate next
# lookup: human GIP receptor (hGIPR) (Homo sapiens, UniProt P48546) EC50, key = H[Aib]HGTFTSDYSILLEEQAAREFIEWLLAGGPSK([AEEA-AEEA-γGlu-C16 diacid])GEASQLSTAALGRLSAELHRLADLPRTETGSGSP-NH2 [Compound 62]
2.26

----------
EC50: recorded values
- system.name: human amylin receptor (hAMYR3) (Homo sapiens, UniProt O60896+P30988)
- Construct: host or cells: BHK cells (Hollex-1 line expressing hCTR(a) and CRE-Luc), further transfected with human RAMP3
- Sequence (P30988 25-474): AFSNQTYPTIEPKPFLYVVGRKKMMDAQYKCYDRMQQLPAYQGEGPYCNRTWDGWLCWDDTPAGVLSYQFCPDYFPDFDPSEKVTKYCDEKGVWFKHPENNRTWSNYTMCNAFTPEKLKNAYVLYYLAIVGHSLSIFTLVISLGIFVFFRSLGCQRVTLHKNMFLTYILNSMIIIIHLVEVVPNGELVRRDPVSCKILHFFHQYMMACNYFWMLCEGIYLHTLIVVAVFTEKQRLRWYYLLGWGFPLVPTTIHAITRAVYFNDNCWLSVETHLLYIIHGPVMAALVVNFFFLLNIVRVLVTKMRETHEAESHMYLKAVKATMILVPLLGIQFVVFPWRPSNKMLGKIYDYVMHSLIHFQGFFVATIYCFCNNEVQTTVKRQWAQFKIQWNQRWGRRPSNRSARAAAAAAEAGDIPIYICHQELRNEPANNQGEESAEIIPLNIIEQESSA
- Sequence (O60896 24-148): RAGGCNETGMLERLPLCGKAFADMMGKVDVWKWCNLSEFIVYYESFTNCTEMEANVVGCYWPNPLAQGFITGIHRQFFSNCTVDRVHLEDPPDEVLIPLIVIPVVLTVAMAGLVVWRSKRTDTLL
- test.name: Amylin receptor assay, method A (CRE-luciferase reporter, BHK cells)
- Assay type: cell-based
- experimental.conditions: method A, absence of HSA; read-out: hAMYR3 Potency, no HSA, EC50
- Protocol: To assess how the activation of the receptors is potentially influenced by the presence of human serum albumin (HSA), the in vitro assays were performed in the absence of HSA and presence of 1% (w/v) HSA. It is thus possible to measure hAMYR3 activity using a CRE-luciferase reporter gene introduced into Baby Hamster Kidney (BHK) cells co-expressing the hAMYR3. […] The plate was incubated over night at 37° C. in 5% CO2. […] Luminescence was detected on a luminescence plate reader e.g., a Synergy 2 (BioTek).
Numbered stars: 1 amine (or outer) side, 2 acyl side, 3 side chain; on linkers, the order of the positions; unused ones are H or OH. Square brackets hold non-standard residues; d marks the D form. Side chains are listed from the residue outwards. * marks the point of attachment. C18 diacid = O=C(O)CCCCCCCCCCCCCCCCC(=O)*; C16 diacid = O=C(O)CCCCCCCCCCCCCCC(=O)*; γGlu = O=C(O)[C@H](CCC(=O)[*:2])N[*:1]; AEEA = NCCOCCOCC(=O)O; Aib = CC(C)(N)C(=O)O

Worked examples, 5 substances total:
>  <substance>
Y[Aib]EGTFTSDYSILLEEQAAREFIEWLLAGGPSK([AEEA-AEEA-γGlu-C16 diacid])GAPPPSGGGEASELSTAALGRLSAELHELATLPRTETGSGSP-NH2 [compound 10]

>  <EC50>
6.8 pM

$$$$
>  <substance>
Y[Aib]EGTFTSDYSILLEEQAAREFIEWLLAGGPSSGAGQAPGQAPGASHLSTAQTQRLSAELHK([AEEA-AEEA-γGlu-C18 diacid])LATLPRTETGSGSP-NH2 [compound 52]

>  <EC50>
2.85 pM

$$$$
>  <substance>
H[Aib]HGTFTSDYSILLEEQAAREFIEWLLAGGPSSGALQAPGQAPLASHLSTAQTARLSAELHK([AEEA-AEEA-γGlu-C18 diacid])LATLPRTETGSGSP-NH2 [Compound 108]

>  <EC50>
2.48 pM

$$$$
>  <substance>
H[Aib]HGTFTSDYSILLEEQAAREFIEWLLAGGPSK([AEEA-AEEA-γGlu-C16 diacid])GEASELSTAALGRLSAELHRLATLPRTETGSGSP-NH2 [Compound 17]

>  <EC50>
5.13 pM

$$$$
>  <substance>
Y[Aib]EGTFTSDYSILLEEQAAREFIEWLLAGGPSRGAPPPSGGGEASHLSTQTQGRLSAELHK([AEEA-AEEA-γGlu-C18 diacid])LATLPRTETGSGSP-NH2 [Compound 72]

>  <EC50>
6.57 pM

$$$$

// next entry
Specify EC50 for Y[Aib]EGTFTSDYSILLEEQAAREFIEWLLAGGPSSGAGQAPGQAPGASHLSTAQTQRLSAELHRLK([AEEA-AEEA-γGlu-C18 diacid])TLPRTETGSGSP-NH2 [Compound 56] , system human amylin receptor (hAMYR3) (Homo sapiens, UniProt O60896+P30988).
2.36 pM
